Taken from paper PMC11758220.

Each record here notes measured inhibition at 10 µM.
# experimental.target: ORP1 (Homo sapiens)
# Construct: ORP1(534-950); host or cells: E. coli BL21(DE3)
# experiment.summary: Fluorescence polarisation (FP) competition with NBD-cholesterol, ORP1
# Assay type: binding
# test.conditions: single dose, Dose = 10 µM
Write it as a number; the unit % goes unstated.

Sample answers from the record:
{"columns": ["molecule", "experimental.target", "output.unit", "inhibition at 10 µM"],
 "data": [
  ["COc1ccc2[nH]c3c(c2c1)CC[C@@H]1C[C@H](O)CC[C@]31C [Compound 10f]", "ORP1 (Homo sapiens)", "%", 11.7],
  ["COc1ccc2c(c1)C(=O)N[C@]1(CCC[C@@H]3C[C@H](O)CC[C@@]31C)N2", "ORP1 (Homo sapiens)", "%", 3.3],
  ["Cc1cc(C)c2c(c1)NC(=O)[C@@]1(C)CC[C@@H](O)C[C@H]1CCC2=O [Compound 11g]", "ORP1 (Homo sapiens)", "%", -6.7],
  ["Cc1cc2nc3c(nc2cc1C)[C@@]1(C)CC[C@@H](O)C[C@H]1CC3", "ORP1 (Homo sapiens)", "%", 0],
  ["Cc1ccc2c(c1)[C@@]13CC[C@@H]4C[C@@H](CC[C@@]41C)OC3=N2 [Compound 15e]", "ORP1 (Homo sapiens)", "%", 8.3],
  ["C[C@]12CC[C@@H]3C[C@H]1CC[C@@]21C(=Nc2c(F)cc(Cl)cc21)O3 [Compound 15i]", "ORP1 (Homo sapiens)", "%", 40],
  ["Cc1ccc2[nH]c3c(c(=O)c2c1)C[C@@H]1C[C@H](O)CC[C@]31C", "ORP1 (Homo sapiens)", "%", -6.7],
  ["C[C@]12CC[C@@H]3C[C@H]1CC[C@@]21C(=Nc2ccc(C(F)(F)F)cc21)O3 [Compound 15g]", "ORP1 (Homo sapiens)", "%", 73.3],
  ["C[C@]12CC[C@@H]3C[C@H]1CC[C@@]21C(=Nc2ccc(-c4ccccc4)cc21)O3 [Compound 21a]", "ORP1 (Homo sapiens)", "%", 60.8],
  ["C[C@]12CC[C@@H](O)C[C@H]1CCc1sc(N)nc12", "ORP1 (Homo sapiens)", "%", -9.2]
]}

Task item: What value of inhibition at 10 µM on ORP1 (Homo sapiens) does C[C@]12CC[C@@H]3C[C@H]1CC[C@@]21C(=Nc2ccccc21)O3 [Compound 15a] have?
Reply: 10

Task item: Same for C[C@]12CC[C@@H]3C[C@H]1CC[C@@]21C(=Nc2ccc(N4CCN(Cc5ccncc5)CC4)cc21)O3
Reply: 112

Task item: Same for CC12CCC3CC1CCC21C(=Nc2ccc(N4CCOCC4)cc21)O3 (racemic) [Compound 19a]
Reply: 0

Task item: Same for Cc1ccc2c(c1)C(=O)CC[C@@H]1C[C@H](O)CC[C@]1(C)C(=O)N2 [Compound 11c]
Reply: -8.3

Task item: Same for C[C@]12CC[C@@H](O)C[C@H]1CCC(=O)c1cc(C(F)(F)F)ccc1NC2=O [Compound 11e]
Reply: -3.3

Task item: Same for COc1ccc(-c2nc3c(s2)CC[C@@H]2C[C@H](O)CC[C@]32C)cc1
Reply: 66.7

Task item: Same for COc1ccc2c(c1)[C@@]13CC[C@@H]4C[C@@H](CC[C@@]41C)OC3=N2 [Compound 15f]
Reply: 33.3

----------
# experimental.target: OSBP (Homo sapiens)
# Construct: OSBP(377-807); host or cells: E. coli OverExpress C41
# Sequence (P22059 377-807): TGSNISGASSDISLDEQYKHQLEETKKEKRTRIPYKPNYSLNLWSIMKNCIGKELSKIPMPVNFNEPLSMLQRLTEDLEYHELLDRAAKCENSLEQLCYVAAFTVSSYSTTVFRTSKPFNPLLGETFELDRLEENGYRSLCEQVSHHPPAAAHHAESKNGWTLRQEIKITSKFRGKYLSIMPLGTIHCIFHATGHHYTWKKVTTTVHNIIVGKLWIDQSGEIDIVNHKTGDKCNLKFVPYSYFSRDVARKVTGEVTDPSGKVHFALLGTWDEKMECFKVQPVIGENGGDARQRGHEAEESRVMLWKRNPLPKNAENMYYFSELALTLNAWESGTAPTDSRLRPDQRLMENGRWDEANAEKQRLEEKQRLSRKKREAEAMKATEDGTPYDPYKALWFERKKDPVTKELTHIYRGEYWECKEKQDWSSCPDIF
# experiment.summary: Fluorescence polarisation (FP) competition with NBD-cholesterol, OSBP
# Type: binding
# test.conditions: single dose
measured.metric: inhibition at 10 µM (%)
Write it as a number; the unit % goes unstated.

Sample answers from the record:
{"columns": ["molecule", "experimental.target", "measured.metric", "observed.value"],
 "data": [
  ["Cc1ccc2c(c1)[C@@]13CC[C@@H]4C[C@@H](CC[C@@]41C)OC3=N2 [Compound 15e]", "OSBP (Homo sapiens)", "inhibition at 10 µM", 5],
  ["COc1ccc(-c2ccc3c(c2)C24CCC5CC(CCC52C)OC4=N3)cc1 (stereo not drawn) [Compound 21b]", "OSBP (Homo sapiens)", "inhibition at 10 µM", 17.5],
  ["COc1ccc(-c2nc3c(s2)CC[C@@H]2C[C@H](O)CC[C@]32C)cc1 [Compound 8d]", "OSBP (Homo sapiens)", "inhibition at 10 µM", 2.6]
]}

Task item: inhibition at 10 µM for COc1ccc2[nH]c3c(c2c1)CC[C@@H]1C[C@H](O)CC[C@]31C [Compound 10f] ?
Reply: -6.7

Task item: Same for COc1ccc2c(c1)C(=O)N[C@]1(CCC[C@@H]3C[C@H](O)CC[C@@]31C)N2 [Compound 5c]
Reply: 18.2

Task item: Same for Cc1cc(C)c2c(c1)N=C1[C@@]2(O)CC[C@@H]2C[C@H](O)CC[C@]12C [Compound 14c]
Reply: 2.7

Task item: Same for C[C@]12CC[C@@H]3C[C@H]1CC[C@@]21C(=Nc2c(F)cc(Cl)cc21)O3 [Compound 15i]
Reply: 8.3

Task item: Same for C[C@]12CC[C@@H](O)C[C@H]1CCc1c2[nH]c2c(F)cc(Cl)cc12 [Compound 10i]
Reply: -9.3

Task item: Same for CC12CCC3CC1CCC21C(=Nc2ccc(N4CCNCC4)cc21)O3 (stereo not drawn) [Compound 22]
Reply: 6.9

Task item: Same for CC12CCC(O)CC1CCc1c2[nH]c2ccc(C(F)(F)F)cc12 (stereo not drawn) [Compound 10g]
Reply: -8

Task item: Same for Cc1ccc2[nH]c3c(c(=O)c2c1)C[C@@H]1C[C@H](O)CC[C@]31C [Compound 12]
Reply: 2

Task item: Same for C[C@]12CC[C@@H]3C[C@H]1CC[C@@]21C(=Nc2ccc(Br)cc21)O3 (racemic) [Compound 15b]
Reply: 7

Task item: Same for CC12CCC3CC1CCC21C(=Nc2ccc(Br)cc21)O3 (single isomer, unassigned; (+)) [(+)-15b]
Reply: 13.1

Task item: Same for COc1ccc2c(c1)C(=O)CC[C@@H]1C[C@H](O)CC[C@]1(C)C(=O)N2 [Compound 11d]
Reply: -5.3

Task item: Same for C[C@]12CC[C@@H](O)C[C@H]1CCC[C@]21NC(=O)c2ccc(F)cc2N1 [Compound 5b]
Reply: 8.2

Task item: Same for CC(C)(C)OC(=O)N1CCN(c2ccc3c(c2)C24CCC5CC(CCC52C)OC4=N3)CC1 (stereo not drawn) [Compound 19e]
Reply: 17.2

Task item: Same for Cc1ccc2[nH]c3c(c2c1)CC[C@@H]1C[C@H](O)CC[C@]31C [Compound 10e]
Reply: -1.3

Task item: Same for Cc1cc2nc3c(nc2cc1C)[C@@]1(C)CC[C@@H](O)C[C@H]1CC3 [Compound 7b]
Reply: 24

Task item: Same for CC12CCC3CC1CCC21C(=Nc2ccc(N4CCOCC4)cc21)O3 (racemic) [Compound 19a]
Reply: 3

----------
Each record here notes measured ΔTm at 10 µM.
# experimental.target: STARD4 (Homo sapiens, UniProt Q96DR4, C75S)
# Construct: STARD4(2-205; C75S); made in house; host or cells: E. coli BL21(DE3)
# Sequence (Q96DR4 2-205 C75S): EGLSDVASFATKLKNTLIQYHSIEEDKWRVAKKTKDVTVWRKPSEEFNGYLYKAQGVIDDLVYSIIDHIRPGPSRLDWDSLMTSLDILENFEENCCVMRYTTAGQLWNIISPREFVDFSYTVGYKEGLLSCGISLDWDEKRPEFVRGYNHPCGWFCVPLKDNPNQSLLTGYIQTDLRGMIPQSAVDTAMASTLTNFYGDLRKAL
# experiment.summary: Differential scanning fluorimetry (DSF), STARD4
# Type: binding
# test.conditions: single dose, Dose = 10 µM
Write it as a number; the unit °C goes unstated.

Task item: ΔTm at 10 µM for C[C@]12CC[C@@H](O)C[C@H]1CCc1c2nc2ccccc2c1-c1ccc(F)cc1 ?
Reply: -0.177

Task item: Same for CC12CCC3CC1CCC21C(=Nc2c(Br)cc(C(F)(F)F)cc21)O3 (stereo not shown) [Compound 15h]
Reply: 0.106

Task item: Same for CC12CCC3CC1CCC21C(=Nc2ccc(N4CCOCC4)cc21)O3 (racemic) [Compound 19a]
Reply: 0.851

Task item: Same for C[C@]12CC[C@@H]3C[C@H]1CC[C@@]21C(=Nc2ccc(-c4ccccc4)cc21)O3 [Compound 21a]
Reply: 0.8

----------
# experimental.target: ORP1 (Homo sapiens, UniProt Q9BXW6)
# Construct: ORP1(534-950); host or cells: E. coli BL21(DE3)
# Sequence (Q9BXW6 534-950): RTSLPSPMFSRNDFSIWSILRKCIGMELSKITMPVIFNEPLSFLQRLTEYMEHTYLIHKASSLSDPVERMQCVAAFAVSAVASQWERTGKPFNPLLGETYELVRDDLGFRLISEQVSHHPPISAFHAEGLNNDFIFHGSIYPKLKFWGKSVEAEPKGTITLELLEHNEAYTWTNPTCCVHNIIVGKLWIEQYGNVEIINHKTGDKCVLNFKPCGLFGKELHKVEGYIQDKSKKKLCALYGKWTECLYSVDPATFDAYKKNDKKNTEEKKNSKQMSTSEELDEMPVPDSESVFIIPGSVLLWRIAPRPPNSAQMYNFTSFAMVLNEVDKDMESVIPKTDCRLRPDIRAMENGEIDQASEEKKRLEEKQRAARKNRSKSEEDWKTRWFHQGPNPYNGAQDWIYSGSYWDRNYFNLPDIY
# experiment.summary: Fluorescence polarisation (FP) competition with NBD-cholesterol, ORP1
# Type: binding
# test.conditions: single dose, Dose = 10 µM
Each record here notes measured inhibition at 10 µM.
Write it as a number; the unit % goes unstated.

{"columns": ["molecule", "inhibition at 10 µM / %"],
 "data": [
  ["C[C@]12CC[C@@H](O)C[C@H]1CCc1c2[nH]c2ncccc12 [Compound 3]", -5.8],
  ["C[C@@]12CC[C@H]3C[C@@H]1CC[C@]21C(=Nc2ccc(Br)cc21)O3 [(−)-15b]", 68.3],
  ["Cc1ccc2c(c1)[C@]1(O)CC[C@@H]3C[C@H](O)CC[C@]3(C)C1=N2 [Compound 14a]", 65]
]}

Next up:
Task item: inhibition at 10 µM for COc1ccc2c(c1)[C@]1(O)CC[C@@H]3C[C@H](O)CC[C@]3(C)C1=N2 [Compound 14b] ?
Reply: 0
